# Measurement Description: self-splicing fitness, log relative to wild type (ln ratio); higher = more splicing; Tetrahymena group I intron in knt gene, E. coli kanamycin selection, DiMSum; sequences stand for … in CUCUCU…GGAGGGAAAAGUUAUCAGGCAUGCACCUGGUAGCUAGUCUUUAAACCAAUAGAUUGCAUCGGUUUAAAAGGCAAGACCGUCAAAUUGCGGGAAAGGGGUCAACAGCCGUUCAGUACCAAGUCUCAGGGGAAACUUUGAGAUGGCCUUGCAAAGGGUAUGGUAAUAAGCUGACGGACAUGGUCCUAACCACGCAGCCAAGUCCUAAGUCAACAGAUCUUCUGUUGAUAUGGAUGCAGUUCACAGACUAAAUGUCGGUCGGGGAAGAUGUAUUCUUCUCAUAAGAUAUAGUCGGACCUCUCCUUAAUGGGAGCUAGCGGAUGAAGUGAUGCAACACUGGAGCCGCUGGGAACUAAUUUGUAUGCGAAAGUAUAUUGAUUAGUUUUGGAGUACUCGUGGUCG;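 further: selection with 25 µg/mL kanamycin versus none on LB agar overnight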
# Measurement Setup: 30 °C
Would you please tag the item Satisfied when its self-splicing fitness (ln) is -2 or above, and Not satisfied when it is below?

Is it the case that "UAAAAGCAAUAUUACGCGCC" has self-splicing fitness (ln) reaching or exceeding -2?
Satisfied

Is it the case that "UCUCAGCAAUAUUACGGUAG" has self-splicing fitness (ln) reaching or exceeding -2?
Not satisfied

Is it the case that "GUAGAGCAAUAUUACGACCC" has self-splicing fitness (ln) reaching or exceeding -2?
Satisfied

Is it the case that "AAAAAGCAAUAUUACGCGAG" has self-splicing fitness (ln) reaching or exceeding -2?
Satisfied

Is it the case that "AUUAAGCAAUAUUACGGCCU" has self-splicing fitness (ln) reaching or exceeding -2?
Satisfied

Is it the case that "CCUCAGCAAUAUUACGGAUG" has self-splicing fitness (ln) reaching or exceeding -2?
Satisfied

Is it the case that "CGGAAGCAAUAUUACGCUUC" has self-splicing fitness (ln) reaching or exceeding -2?
Not satisfied

Is it the case that "GCUUAGCAAUAUUACGCGCU" has self-splicing fitness (ln) reaching or exceeding -2?
Not satisfied

Is it the case that "CCGCAGCAAUAUUACGGACA" has self-splicing fitness (ln) reaching or exceeding -2?
Not satisfied

Is it the case that "UCAGAGCAAUAUUACGGACG" has self-splicing fitness (ln) reaching or exceeding -2?
Not satisfied

Is it the case that "UAUGAGCAAUAUUACGAAGA" has self-splicing fitness (ln) reaching or exceeding -2?
Not satisfied

Is it the case that "CGAUAGCAAUAUUACGUUGU" has self-splicing fitness (ln) reaching or exceeding -2?
Not satisfied

Is it the case that "UCCCAGCAAUAUUACGCUCU" has self-splicing fitness (ln) reaching or exceeding -2?
Not satisfied

Is it the case that "ACCUAGCAAUAUUACGACUA" has self-splicing fitness (ln) reaching or exceeding -2?
Not satisfied

Is it the case that "CUAGAGCAAUAUUACGAAUU" has self-splicing fitness (ln) reaching or exceeding -2?
Not satisfied

Is it the case that "GAGAAGCAAUAUUACGACCG" has self-splicing fitness (ln) reaching or exceeding -2?
Satisfied
